- Test system: 786-O (renal cell carcinoma)
- Experiment Notes: Cell viability (Alamar Blue), 24-hour 2D viability, 786-O cells
- Type: cell-based, human
- Stated Conditions: Homo sapiens, 786-0, 24 h, 786-0 cells, 10% FBS, 24-hour 2D viability; read-out: EC50 (nM) 786-0 10% FBS
Property Measured: log10 of EC50 (log10 of the value in nM)
Values are log10 of EC50 in nM.

C#Cc1nc(C(=O)N2[C@@H](CCCC)Cc3cc(OC)ccc3[C@@H]2c2ccc(NC34CC5CC(CC(C5)C3)C4)cc2)co1 [Compound 26a]    1.62
C#Cc1nc(C(=O)N2[C@@H](CCCC)Cc3cc(OC)ccc3[C@@H]2c2ccc(C#N)cc2)cs1 [Compound 2a]    1.48
C#Cc1nc(C(=O)N2[C@@H](c3ccc(F)cc3)c3[nH]c4ccccc4c3C[C@@H]2c2nc(C)no2)cs1 [Compound 20a]    2.07

Tell me its log10 of EC50 on 786-O (renal cell carcinoma): C#Cc1nc(C(=O)N2C(c3ccc(S(=O)(=O)NC4CCC4)cc3)c3ccc(OC)cc3C[C@@H]2CCCC)cs1 (some centres unmarked) [Compound 9a]
1.78

Give log10 of EC50; test system 786-O (renal cell carcinoma); molecule C#Cc1nc(C(=O)N2[C@@H](CCCC)Cc3cc(OC)ccc3[C@@H]2c2ccc(NC34CC5CC(CC(C5)C3)C4)cc2)cs1 [Compound 1a]
1.64

Report value only: log10 of EC50, 786-O (renal cell carcinoma), C#Cc1nc(C(=O)N2[C@@H](CCCC)Cc3c([nH]c4ccccc34)C23CNC3)cs1 [Compound 12a]
0.88

Hey, just so you know, these numbers are from patent US20260015346A1.
